Below, each entry is listed with its recorded pIC50.
system: ovarian cancer cells SK-OV-3; assay: High-throughput screening (HTS) cytotoxicity, ATPlite assay; format: cell-based; settings: Homo sapiens; SK-OV-3 (HER+), 384-well, 72 hours, ATPlite; read-out: IC50
pIC50: −log10 of the molar value.
RECORDED_ENDPOINT: pIC50

> print(dat)
                                   compound  test.result
1  COc1ccc2c(O)cc3c(c2c1)[C@H](CCl)CN3C(=O)c1cc2cc(NC(=O)CCN(C)C)ccc2[se]1        10.38
2  COCCOCCOCCOCCOc1cc2[se]c(C(=O)N3C[C@@H](CCl)c4c3cc(O)c3ccc(OC)cc43)cc2cc1NC(C)=O [DS-28, reference compound]         8.78
